Data credit: patent EP2888233B1

# system: KCNQ2/3 channels (Homo sapiens, UniProt O43525+O43526)
# Construct: expressed in transfected cells
# assay-notes: Fluorescence assay using a voltage sensitive dye (fluorimetry)
# Type: cell-based
# test-settings: CHO-K1 cells expressing KCNQ2/3 channels; plateau effect relative to saturated Retigabine (50 µM) = 100%
reported-property: Fluorimetry % efficacy (retigabine = 100%)

For orientation, consider the following solved cases.
{"compound": "Cc1cc(N2CCOCC2)nc(C(C)C)c1C(=O)NCCC(O)C(F)(F)F (single isomer, unassigned) [Example 6a]", "experimental-result": "206%"}
{"compound": "Cc1cc(N2CCOCC2)nc(C(C)C)c1C(=O)NCCC(O)C(F)(F)F (single isomer, unassigned) [Example 6b]", "experimental-result": "149%"}
{"compound": "Cc1cc(N2CCOCC2)nc(C2CC2)c1C(=O)NCCC(O)C(C)(C)C (single isomer, unassigned) [Example 1b]", "experimental-result": "224%"}

Consider the additional compound presented here.
Lab note: need Fluorimetry % efficacy (retigabine = 100%) with KCNQ2/3 channels (Homo sapiens, UniProt O43525+O43526) for entry Cc1cc(N2CCOCC2)nc(C(C)C)c1C(=O)NCCC(O)C(C)(C)C (single isomer, unassigned) [Example 5b] , please look it up.
239%

###

# system: KCNQ2/3 channels (Homo sapiens, UniProt O43525+O43526)
# assay-notes: Fluorescence assay using a voltage sensitive dye (fluorimetry)
# test-settings: CHO-K1 cells expressing KCNQ2/3 channels; voltage-sensitive dye, KCl depolarization; read-out: Fluorimetry EC50 / IC50
# Procedure: Method I. Fluorescence assay using a voltage sensitive dye (fluorimetry) […] Before being sown out for the measurements, the cells are washed with 1 x DPBS buffer Ca^2+/Mg^2+-free (e.g. Invitrogen, #14190-094) and detached from the bottom of the culture vessel by using Accutase (PAA Laboratories, #L11-007) (incubation with Accutase for 15 min at 37°C). The cell number is determined using a CASY™ cell counter (TCC, Schärfe System). […]
Simple rule here: EC50 less than 500 nM is T, otherwise F.

Below, 10 compounds whose answers are already recorded.
{"compound": "Cc1cc(N2CCOCC2)nc(C(C)C)c1C(=O)NCCC(O)C(C)(C)C (single isomer, unassigned) [Example 5b]", "system": "KCNQ2/3 channels (Homo sapiens, UniProt O43525+O43526)", "category-label": "T"}
{"compound": "Cc1cc(N2CCOCC2)nc(C2CC2)c1C(=O)NCCC(O)C(C)(C)C (single isomer, unassigned) [Example 1a]", "system": "KCNQ2/3 channels (Homo sapiens, UniProt O43525+O43526)", "category-label": "F"}
{"compound": "Cc1cc(N2CCOCC2)nc(C(C)C)c1C(=O)NCCC(O)C(F)(F)F (single isomer, unassigned) [Example 6a]", "system": "KCNQ2/3 channels (Homo sapiens, UniProt O43525+O43526)", "category-label": "F"}
{"compound": "Cc1cc(N2CCOCC2)nc(C2CC2)c1C(=O)NC[C@H]1CCCC[C@@H]1O [Example 3]", "system": "KCNQ2/3 channels (Homo sapiens, UniProt O43525+O43526)", "category-label": "F"}
{"compound": "Cc1cc(N2CCOCC2)nc(C(C)C)c1C(=O)NCCC(O)C(C)(C)C (single isomer, unassigned) [Example 5a]", "system": "KCNQ2/3 channels (Homo sapiens, UniProt O43525+O43526)", "category-label": "T"}
{"compound": "Cc1cc(N2CCOCC2)nc(C2CC2)c1C(=O)NCCC(O)C(C)(C)C (single isomer, unassigned) [Example 1b]", "system": "KCNQ2/3 channels (Homo sapiens, UniProt O43525+O43526)", "category-label": "T"}
{"compound": "Cc1cc(N2CCOCC2)nc(C2CC2)c1C(=O)NC[C@@H]1CCCC[C@H]1O [Example 2]", "system": "KCNQ2/3 channels (Homo sapiens, UniProt O43525+O43526)", "category-label": "T"}
{"compound": "Cc1cc(N2CCOCC2)nc(C(C)C)c1C(=O)NCCC(O)C(F)(F)F (single isomer, unassigned) [Example 6b]", "system": "KCNQ2/3 channels (Homo sapiens, UniProt O43525+O43526)", "category-label": "F"}
{"compound": "Cc1cc(N2CCOCC2)nc(C(C)C)c1C(=O)NC[C@@H]1CCCC[C@H]1O [Example 7]", "system": "KCNQ2/3 channels (Homo sapiens, UniProt O43525+O43526)", "category-label": "T"}
{"compound": "Cc1cc(N2CCOCC2)nc(C(C)C)c1C(=O)NCCC(O)C(F)(F)F (stereo not shown) [Example 6]", "system": "KCNQ2/3 channels (Homo sapiens, UniProt O43525+O43526)", "category-label": "F"}

Consider the compound CCOc1nc(N2CCOCC2)cc(C)c1C(=O)NCCC(O)C(C)(C)C (stereo not shown) [Example 8] . Is its EC50 strictly less than 500 nM?
T

Consider the compound Cc1cc(N2CCOCC2)nc(C2CC2)c1C(=O)NCCC(O)C(C)(C)C (stereo not shown) [Example 1] . Is its EC50 strictly less than 500 nM?
F

Consider the compound Cc1cc(N2CCOCC2)nc(C(C)C)c1C(=O)NCCC(O)C(C)(C)C (stereo not shown) [Example 5] . Is its EC50 strictly less than 500 nM?
T
